ASSAYED SYSTEM: 20S proteasome
METHOD NOTES: Tested in vitro for inhibition of chymotrypsin like activity of purified human 20S proteasome
Parameter IC50: see the listing below.
Report as a plain number; the unit nM is understood.

Reference set, count: 4
{"GIVEN SMILES": "COc1ccc(CNC(=O)[C@@H](NC(=O)[C@H](NCc2ccc(OC)cc2OC)[C@H](O)[C@H](Cc2ccccc2)NC(=O)[C@@H](NC(=O)OCc2ccccc2)C(C)(C)C)C(C)C)c(O)c1", "EXPERIMENTAL READOUT": "IC50", "VAL": 1600}
{"GIVEN SMILES": "COc1ccc(CNC(=O)[C@@H](NC(=O)[C@H](NCc2ccc(OC)c(OC)c2OC)[C@H](O)[C@H](Cc2ccccc2)NC(=O)[C@@H](NC(=O)Cc2cccc3ccccc23)C(C)(C)C)C(C)C)c(O)c1", "EXPERIMENTAL READOUT": "IC50", "VAL": 18}
{"GIVEN SMILES": "COc1ccc(CNC(=O)[C@@H](NC(=O)[C@H](NCc2ccc(N(C)C)cc2)[C@H](O)[C@H](Cc2ccccc2)NC(=O)[C@@H](NC(=O)Cc2cccc3ccccc23)C(C)(C)C)C(C)C)c(O)c1", "EXPERIMENTAL READOUT": "IC50", "VAL": 160}
{"GIVEN SMILES": "COc1ccc(CN[C@@H](C(=O)N[C@H](C(=O)NCc2ccc(OC)cc2O)C(C)C)[C@H](O)[C@H](Cc2ccccc2)NC(=O)[C@@H](NC(=O)Cc2cccc3ccccc23)C(C)(C)C)cc1", "EXPERIMENTAL READOUT": "IC50", "VAL": 100}

input: // fetch 20S proteasome IC50 for COc1ccc(CNC(=O)[C@@H](NC(=O)[C@H](NCc2ccc(OC)c(OC)c2)[C@H](O)[C@H](Cc2ccccc2)NC(=O)[C@@H](NC(=O)OCc2ccccc2)C(C)(C)C)C(C)C)c(O)c1
output: 150

###

ASSAYED SYSTEM: 20S proteasome
METHOD NOTES: Tested in vitro for inhibition of chymotrypsin like activity of purified human 20S proteasome
EXPERIMENTAL READOUT: pIC50
Remember the convention: pIC50 equals -log10 of concentration in molar.

{"GIVEN SMILES": "COc1ccc(CNC(=O)[C@@H](NC(=O)[C@H](NCc2ccc(C(C)C)cc2)[C@H](O)[C@H](Cc2ccccc2)NC(=O)[C@@H](NC(=O)OCc2ccccc2)C(C)(C)C)C(C)C)c(O)c1", "pIC50": 5.80}
{"GIVEN SMILES": "COc1cc(CN[C@@H](C(=O)N[C@H](C(=O)NCc2ccc(OC)cc2O)C(C)C)[C@H](O)[C@H](Cc2ccccc2)NC(=O)[C@@H](NC(=O)OCc2ccccc2)C(C)(C)C)cc(OC)c1", "pIC50": 6.72}

input: If you can, please state the reported pIC50 value of COc1cccc(CN[C@@H](C(=O)N[C@H](C(=O)NCc2ccc(OC)cc2O)C(C)C)[C@H](O)[C@H](Cc2ccccc2)NC(=O)[C@@H](NC(=O)OCc2ccccc2)C(C)(C)C)c1 .
output: 5.82

###

ASSAYED SYSTEM: 20S proteasome
METHOD NOTES: Tested in vitro for inhibition of chymotrypsin like activity of purified human 20S proteasome
EXPERIMENTAL READOUT: IC50 (µM)
The figure you give is taken to be in µM; do not add the unit.

{"GIVEN SMILES": "COc1ccc(CN[C@@H](C(=O)N[C@H](C(=O)NCc2ccc(OC)cc2O)C(C)C)[C@H](O)[C@H](Cc2ccccc2)NC(=O)[C@@H](NC(=O)OCc2ccccc2)C(C)(C)C)cc1", "IC50 / µM": 0.9}

Note: attention shifts to another entry.
input: Would you kindly share the measured IC50 for COc1ccc(CNC(=O)[C@@H](NC(=O)[C@H](NCc2ccc(N(C)C)cc2)[C@H](O)[C@H](Cc2ccccc2)NC(=O)[C@@H](NC(=O)OCc2ccccc2)C(C)(C)C)C(C)C)c(O)c1 ?
output: 0.6

###

ASSAYED SYSTEM: 20S proteasome
METHOD NOTES: Tested in vitro for inhibition of chymotrypsin like activity of purified human 20S proteasome
EXPERIMENTAL READOUT: log10 IC50 (log10 of the value in nM)
Use the decimal logarithm of IC50 (nM).

Some solved cases for reference:
{"GIVEN SMILES": "COc1ccc(CNC(=O)[C@@H](NC(=O)[C@H](NCc2cc(OC)c(OC)cc2OC)[C@H](O)[C@H](Cc2ccccc2)NC(=O)[C@@H](NC(=O)OCc2ccccc2)C(C)(C)C)C(C)C)c(O)c1", "log10 IC50": 2.30}
{"GIVEN SMILES": "COc1ccc(CNC(=O)[C@@H](NC(=O)[C@H](NCc2cc(OC)c(OC)c(OC)c2)[C@H](O)[C@H](Cc2ccccc2)NC(=O)[C@@H](NC(=O)OCc2ccccc2)C(C)(C)C)C(C)C)c(O)c1", "log10 IC50": 1.70}
{"GIVEN SMILES": "COc1ccc(CNC(=O)[C@@H](NC(=O)[C@H](NCc2cc(OC)c(OC)c(OC)c2)[C@H](O)[C@H](Cc2ccccc2)NC(=O)[C@@H](NC(=O)Cc2cccc3ccccc23)C(C)(C)C)C(C)C)c(O)c1", "log10 IC50": 0.85}
{"GIVEN SMILES": "COc1ccc(CNC(=O)[C@@H](NC(=O)[C@H](NCc2cc(OC)c(OC)cc2OC)[C@H](O)[C@H](Cc2ccccc2)NC(=O)[C@@H](NC(=O)Cc2cccc3ccccc23)C(C)(C)C)C(C)C)c(O)c1", "log10 IC50": 1.46}

Note: attention shifts to another entry.
input: So what log10 IC50 did COc1ccc(CNC(=O)[C@@H](NC(=O)[C@H](NCc2ccc(OC)c(OC)c2OC)[C@H](O)[C@H](Cc2ccccc2)NC(=O)[C@@H](NC(=O)OCc2ccccc2)C(C)(C)C)C(C)C)c(O)c1 get with 20S proteasome?
output: 2.00
